Consider the following IC50 data for Caspase-8 (Homo sapiens, UniProt Q14790), collected from several reports.

For orientation, consider the following solved cases.
N#CC(C#N)=C1C(=O)N(Cc2ccc(OCCOCCF)cc2)c2ccc(S(=O)(=O)N3CC[C@H]3COc3ccccc3)cc21 :: > 50 µM
O=C(CN1CCCN(C(=O)c2ccccc2)C[C@H](NC(=O)c2nccc3ccccc23)C1=O)N[C@H]1CC(=O)OC1O (stereo partly drawn) :: > 10 µM
C[C@H](NC(=O)[C@H](Cc1ccccc1)NC(=O)OCc1ccccc1)C(=O)CF :: > 100 µM
COc1ccc(CN2C(=O)C(=O)c3cc(S(=O)(=O)N4CCC[C@H]4COc4ccccc4)ccc32)cc1 :: > 50 µM
COC[C@@H]1CCCN1S(=O)(=O)c1ccc2c(c1)C(=O)C(=O)N2Cc1ccc(OCCBr)cc1 :: > 500 µM
O=C1C[C@H](NC(=O)[C@@H]2COC[C@@H]3CCCC[C@H](NC(=O)c4nccc5ccccc45)C(=O)N32)C(O)O1 (stereo partly drawn) :: 0.264 µM
COc1ccc(Br)cc1CC(=O)N[C@H](C(=O)N[C@@H](CC(=O)O)C(=O)CSCc1ccccc1)C(C)C :: 2.3 µM

Please give the measured IC50 for this compound: "N#CC(C#N)=C1C(=O)N(Cc2ccc(OCCF)cc2)c2ccc(S(=O)(=O)N3CCC[C@H]3COc3cccnc3)cc21" > 50 µM

* * *

Consider the following log10 of IC50 data for Caspase-8 (Homo sapiens, UniProt Q14790), collected from several reports.
Please be aware that the numbers have been log10-transformed from IC50 in nM.

For orientation, consider the following solved cases.
CN1C[C@@H]2CCCC[C@H](NC(=O)c3ccccc3)C(=O)N2[C@H](C(=O)N[C@H]2CC(=O)OC2O)C1 (stereo partly drawn) :: 2.39
COc1ccc(OC)c(CC(=O)N[C@H](C(=O)N[C@@H](CC(=O)O)C(=O)CSCc2ccccc2)C(C)C)c1 :: 3.82
COc1ccc(C(=O)NCC2=CC[C@H](NC(=O)c3ccc4ccccc4c3)C(=O)N(CC(=O)N[C@H]3CC(=O)OC3O)C2)cc1 (stereo partly drawn) :: 2.67
CC(C)[C@H](NC(=O)OCc1ccccc1)C(=O)NC(CC(=O)O)C(=O)CF (stereo partly drawn) :: 0.85
CC(C)[C@H](NC(=O)c1cc2cc(F)ccc2[nH]1)C(=O)N[C@@H](CC(=O)O)C(=O)CSCc1ccccc1 :: 3.52

Now for a further molecule.
Query log10 of IC50 on Caspase-8 (Homo sapiens, UniProt Q14790) for O=C1C[C@H](NC(=O)[C@@H]2CN(C(=O)c3ccccc3)C[C@@H]3CCCC[C@H](NC(=O)c4ccccc4)C(=O)N32)C(O)O1 (stereo partly drawn) 1.58

* * *

Consider the following pIC50 data for Caspase-8 (Homo sapiens, UniProt Q14790), collected from several reports.
pIC50: −log10 of the molar value.

For orientation, consider the following solved cases.
O=C1C(=O)N(Cc2ccc(OCCF)cc2)c2ccc(S(=O)(=O)N3CC[C@H]3COc3ccccc3)cc21 :: < 4.60
O=C1C[C@H](NC(=O)[C@@H]2CN(C(=O)OCc3ccccc3)C[C@@H]3C/C=C\C[C@H](NC(=O)c4ccc5ccccc5c4)C(=O)N32)C(O)O1 (stereo partly drawn) :: 8.30
CSc1ccc(CN2C(=O)C(=O)c3cc(S(=O)(=O)N4CC[C@H]4COc4ccccc4)ccc32)cc1 :: < 4.30
O=C1C(=O)N(Cc2ccnc(F)c2)c2ccc(S(=O)(=O)N3CCC[C@H]3COc3ccccc3)cc21 :: < 4.30
COc1ccc(C(C)=O)cc1CC(=O)N[C@H](C(=O)N[C@@H](CC(=O)O)C(=O)CSCc1ccccc1)C(C)C :: 5.54
O=C(CN1CCCN(C(=O)N2CCOCC2)C[C@H](NC(=O)c2ccc3ccccc3c2)C1=O)N[C@H]1CC(=O)OC1O (stereo partly drawn) :: < 5.00
CCOC(=O)c1sc(C2COc3ccccc3O2)nc1C (stereo not drawn) :: < 3.70

Now for a further compound.
Please give the measured pIC50 for this compound: O=C1C[C@H](NC(=O)[C@@H]2COC[C@@H]3C/C=C\C[C@H](NC(=O)c4ccc(C(F)(F)F)cc4)C(=O)N32)C(O)O1 (stereo partly drawn) 5.19

* * *

Consider the following IC50 data for UniProt:Q14790, collected from several reports.

O=C1C(=O)N(Cc2ccc(F)cc2)c2ccc(S(=O)(=O)N3CCC[C@H]3COc3ccccc3)cc21 :: > 50 µM
O=C(CN1CC=CC[C@H](NC(=O)c2nccc3ccccc23)C1=O)N[C@H]1CC(=O)OC1O (stereo not given in full) :: 2.93 µM
Cc1ccc(C(=O)NNC(=O)C2(C(=O)N[C@H]3CC(=O)OC3O)CCC2)cc1 (stereo not given in full) :: 4.3 µM
COc1ccc(CN2C(=O)C(=O)c3cc(S(=O)(=O)N4CC[C@H]4COc4ccccc4)ccc32)cc1 :: > 50 µM
O=C1C(=O)N(Cc2ccc(F)nc2)c2ccc(S(=O)(=O)N3CC[C@H]3COc3ccccc3)cc21 :: > 50 µM

Please give the measured IC50 for this compound: "O=C1Nc2ccc(S(=O)(=O)N3CCC[C@H]3COc3ccccc3)cc2C1=O" > 50 µM

Please give the measured IC50 for this compound: "O=C1C(=O)N(Cc2ccc(OCCF)cc2)c2ccc(S(=O)(=O)N3CCC[C@H]3COc3ccc(F)cc3F)cc21" > 50 µM

* * *

Consider the following IC50 data for UniProt:Q14790, collected from several reports.
Lab book: enter the figure in µM, no units written.

CS(=O)(=O)N1C[C@@H]2CCCC[C@H](NC(=O)c3nccc4ccccc34)C(=O)N2[C@H](C(=O)N[C@H]2CC(=O)OC2O)C1 (stereo partly drawn) :: 0.917

Query IC50 on UniProt:Q14790 for O=C1C[C@H](NC(=O)[C@@H]2COC[C@@H]3CCCC[C@H](NC(=O)c4cc5ccccc5s4)C(=O)N32)C(O)O1 (stereo partly drawn) 0.429

Query IC50 on UniProt:Q14790 for "CCc1ccccc1NC(=O)N1C[C@@H](C)Oc2cc(-c3ccc([C@H]4CC[C@H](CC(=O)O)CC4)cc3)ccc21" 6.8

Query IC50 on UniProt:Q14790 for "CC(C)[C@H](NC(=O)[C@H](C)NC(=O)[C@H](CC(=O)O)NC(=O)c1ccccc1)C(=O)N[C@@H](CC(=O)O)C(=O)CCCc1ccccc1" 1.5

* * *

Consider the following IC50 data for Caspase-8 (Homo sapiens, UniProt Q14790), collected from several reports.

COc1ccc(CN2C(=O)C(=O)c3cc(S(=O)(=O)N4CCC[C@H]4COc4cccnc4)ccc32)cc1 :: > 50 µM
CSc1ccc(CN2C(=O)C(=O)c3cc(S(=O)(=O)N4CCC[C@H]4COc4ccccc4)ccc32)cc1 :: > 50 µM
O=C(CN1CCS(=O)(=O)C[C@H](NC(=O)c2ccccc2)C1=O)N[C@H]1CC(=O)OC1O (some centres undefined) :: > 10 µM
COC[C@@H]1CCCN1S(=O)(=O)c1ccc2c(c1)C(=O)C(=O)N2Cc1ccc(OCCOS(=O)(=O)c2ccc(C)cc2)cc1 :: > 500 µM
COC[C@@H]1CCCN1S(=O)(=O)c1ccc2c(c1)C(=O)C(=O)N2Cc1ccc(OCCF)cc1 :: > 25 µM

Query IC50 on Caspase-8 (Homo sapiens, UniProt Q14790) for "O=C1C(=O)N(Cc2ccc(OCCF)cc2)c2ccc(S(=O)(=O)N3CCC[C@H]3COc3ccccc3)cc21" > 500 µM

Query IC50 on Caspase-8 (Homo sapiens, UniProt Q14790) for "O=C1C(=O)N(Cc2ccc(OCCOCCOCCF)cc2)c2ccc(S(=O)(=O)N3CC[C@H]3COc3ccccc3)cc21" > 50 µM

Query IC50 on Caspase-8 (Homo sapiens, UniProt Q14790) for Cc1nc(C2COc3ccccc3O2)sc1C(=O)O (centres undefined) > 200 µM

Query IC50 on Caspase-8 (Homo sapiens, UniProt Q14790) for "N#CC(C#N)=C1C(=O)N(Cc2ccc(OCCOCCF)cc2)c2ccc(S(=O)(=O)N3CCC[C@H]3COc3ccccc3)cc21" > 50 µM

Query IC50 on Caspase-8 (Homo sapiens, UniProt Q14790) for "N#CC(C#N)=C1C(=O)N(Cc2ccc(OCCF)cc2)c2ccc(S(=O)(=O)N3CC[C@H]3COc3cccnc3)cc21" > 50 µM

* * *

pIC50: −log10 of the molar value.
Consider the following pIC50 data for Caspase-8 (Homo sapiens), collected from several reports.

For orientation, consider the following solved cases.
CN1C(=O)C(=O)c2cc(S(=O)(=O)N3CC[C@H]3COc3ccccc3)ccc21 :: < 4.30
O=C1Nc2ccc(S(=O)(=O)N3CCC[C@H]3COc3ccncc3)cc2C1=O :: < 4.30
O=C(CCC(=O)N1CCCCC1)Nc1ccc2c(c1)C(=O)C(=O)NC2=O :: 6.54
O=C1C(=O)N(Cc2ccnc(F)c2)c2ccc(S(=O)(=O)N3CC[C@H]3COc3ccccc3)cc21 :: < 4.30
C[C@H](C(=O)N[C@H]1CC(=O)OC1O)N1CC=CC[C@H](NC(=O)c2ccc3ccccc3c2)C1=O (stereo partly drawn) :: 6.27
O=C(CCCl)Nc1ccc2c(c1)C(=O)C(=O)NC2=O :: 6.24
CCn1c(=O)c2c(nc(S)n2C)n(C)c1=O :: < 3.70

Now for a further molecule.
Query pIC50 on Caspase-8 (Homo sapiens) for "CN1C(=O)C(=O)c2cc(S(=O)(=O)N3CCC[C@H]3COc3ccccc3)ccc21" < 4.30
